procedure text: SPR (Biacore) Protein A mAb capture, Compound A injected
assay setup: 37° C., binding to Compound A, apparent affinity, for rank ordering only, read-out: KD
measurement name: pKd
Please express pKd as -log10 of the molar concentration.

* 26D5-296-G08-mAb: human IgG1f/kappa mAb; VH SEQ ID NO: 70, VL SEQ ID NO: 95 (antibody, V domains shown) VH: EVQLVESGGGLIQPGGSLRLSCAASGFQVSSNYMSWVRQAPGKGLEWVSFIYSGGRTYYADSVKGRFTISRDNSKNTLYLQMNSLRAEDTAVYYCARAGFGGGDYWGQGTLVTVSS VL: DIQMTQSPSSVSASVGDRVTITCRASQYIESNLAWYQQKPGKAPKLLIYAASSLQSGVPSRFSGSGSGTDFTLTISSLQPEDFATYYCQQANSFPLTFGGGTKVEIK | 9.31

The record that follows has no pKd shown yet.
Enquiry: Give a short answer stating reported pKd for 26D5-296-C08-mAb: human IgG1f/kappa mAb; VH SEQ ID NO: 66, VL SEQ ID NO: 95 (antibody, V domains shown) VH: EVQLVESGGGLIQPGGSLRLSCAASGFQVSSNAMSWVRQAPGKGLEWVSFIYSGGRTYYADSVKGRFTISRDNSKNTLYLQMNSLRAEDTAVYYCARGGFGGGDYWGQGTLVTVSS VL: DIQMTQSPSSVSASVGDRVTITCRASQYIESNLAWYQQKPGKAPKLLIYAASSLQSGVPSRFSGSGSGTDFTLTISSLQPEDFATYYCQQANSFPLTFGGGTKVEIK .
Return: 9.23
